Property: solubility (g/100 g solution); scope: individual compounds
- assay method text: xn = mol fraction of the nth substance listed, in the solute-free solvent
- particulars: 318.15 K; x2 = 0.4117
# answer = number (no unit)

// below: answered compounds
c1ccc2[nH]c(-c3cscn3)nc2c1 + CCCO + O | 0.707
Cc1[nH]c(=O)c(C#N)cc1-c1ccncc1 + CC(C)O + O | 0.0224
Nc1cccc(S(=O)(=O)c2cccc(N)c2)c1 + CC(C)O + O | 2.05
c1ccc2[nH]c(-c3cscn3)nc2c1 + CC(C)O + O | 0.379

Input: Return reported solubility (g/100 g solution). Input compound: CN1CCN(C2=Nc3cc(Cl)ccc3Nc3ccccc32)CC1 + CC(C)O + O
Output: 1.95

Input: Hello, please tell me recorded solubility (g/100 g solution) for this one: Nc1nccnc1Cl + CC(C)O + O
Output: 1.61
